The values you see were collected from patent US20210403485A1.

# Protocol details: Pharmacokinetic test of compounds in rats (plasma, LC/MS/MS)
# Type: in vivo, male SD rats
# Test conditions: IV, 3 mg/kg
Recorded endpoint: Area under the curve AUC0-last (µM·h)

Answered examples (2):
The compound C[C@H]1CNC(=O)c2cnn3ccc(nc23)N2CCOC[C@@H]2c2cc(F)cnc2O1 [WX004B] showed Area under the curve AUC0-last equal to 4.076

Measured Area under the curve AUC0-last, C[C@@H]1COC[C@@H]2c3cc(F)cnc3O[C@@H](C)CNC(=O)c3cnn4ccc(nc34)N12 : 2.748

I. C[C@@H]1COc2ncc(F)cc2[C@H]2COC[C@@H](C)N2c2ccn3ncc(c3n2)C(=O)N1
II. O=C1NC2(CC2)COc2ncc(F)cc2[C@H]2CCOCCN2c2ccn3ncc1c3n2 [WX009A]
Please choose the item with the lower Area under the curve AUC0-last value from this pair: I and II // output: label of the selected item
I

* * *

In this section we review reported half-life values for a set of molecules.
# Protocol details: Pharmacokinetic test of compounds in rats (plasma, LC/MS/MS)
# Assay type: in vivo, male SD rats
# Test conditions: male, SD, rat, plasma, IV, 3 mg/kg, read-out: Half-life T1/2 (converted)
Give the quantity in min, number only.

Sample O=C1NC2(CC2)COc2ncc(F)cc2C2COCCN2c2ccn3ncc1c3n2 (single isomer, unassigned) [WX001B] ; half-life observed: 72

More entries:
Summary for this molecule, O=C(Nc1cnn2ccc(N3CCC[C@@H]3c3cc(F)ccc3F)nc12)N1CC[C@H](O)C1 [LOXO-101, larotrectinib, reference compound] : half-life is 36

* * *

# Protocol details: Pharmacokinetic test of compounds in mice (plasma, LC/MS/MS)
# Type: in vivo, male CD-1 mice
# Test conditions: male, CD-1, mouse, plasma, IV, 3 mg/kg, read-out: Half-life T1/2 (converted)
Recorded endpoint: half-life (h)

Record excerpt, results attached:
// half-life lookup, molecule = O=C1NC2(CC2)COc2ncc(F)cc2C2COCCN2c2ccn3ncc1c3n2 (single isomer, unassigned) [WX001B] , result: 1.58

molecule C[C@@H]1CCc2ncc(F)cc2[C@H]2CCCN2c2ccn3ncc(c3n2)C(=O)N1 [LOXO-195, reference compound] , half-life observed: 1.19

a. O=C1N[C@@H]2COC[C@@H]2Oc2ncc(F)cc2C2COCCN2c2ccn3ncc1c3n2 (stereo partly shown) [WX005A]
b. O=C(Nc1cnn2ccc(N3CCC[C@@H]3c3cc(F)ccc3F)nc12)N1CC[C@H](O)C1 [LOXO-101, larotrectinib, reference compound]
// select label with min value of measured half-life from [ a , b ] Lab note: record the label of whichever item you select.
b

* * *

# Target under test: ALK (Homo sapiens, UniProt Q9UM73)
# Construct: purchased Reaction Biology Corp
# Sequence (Q9UM73 19-1620): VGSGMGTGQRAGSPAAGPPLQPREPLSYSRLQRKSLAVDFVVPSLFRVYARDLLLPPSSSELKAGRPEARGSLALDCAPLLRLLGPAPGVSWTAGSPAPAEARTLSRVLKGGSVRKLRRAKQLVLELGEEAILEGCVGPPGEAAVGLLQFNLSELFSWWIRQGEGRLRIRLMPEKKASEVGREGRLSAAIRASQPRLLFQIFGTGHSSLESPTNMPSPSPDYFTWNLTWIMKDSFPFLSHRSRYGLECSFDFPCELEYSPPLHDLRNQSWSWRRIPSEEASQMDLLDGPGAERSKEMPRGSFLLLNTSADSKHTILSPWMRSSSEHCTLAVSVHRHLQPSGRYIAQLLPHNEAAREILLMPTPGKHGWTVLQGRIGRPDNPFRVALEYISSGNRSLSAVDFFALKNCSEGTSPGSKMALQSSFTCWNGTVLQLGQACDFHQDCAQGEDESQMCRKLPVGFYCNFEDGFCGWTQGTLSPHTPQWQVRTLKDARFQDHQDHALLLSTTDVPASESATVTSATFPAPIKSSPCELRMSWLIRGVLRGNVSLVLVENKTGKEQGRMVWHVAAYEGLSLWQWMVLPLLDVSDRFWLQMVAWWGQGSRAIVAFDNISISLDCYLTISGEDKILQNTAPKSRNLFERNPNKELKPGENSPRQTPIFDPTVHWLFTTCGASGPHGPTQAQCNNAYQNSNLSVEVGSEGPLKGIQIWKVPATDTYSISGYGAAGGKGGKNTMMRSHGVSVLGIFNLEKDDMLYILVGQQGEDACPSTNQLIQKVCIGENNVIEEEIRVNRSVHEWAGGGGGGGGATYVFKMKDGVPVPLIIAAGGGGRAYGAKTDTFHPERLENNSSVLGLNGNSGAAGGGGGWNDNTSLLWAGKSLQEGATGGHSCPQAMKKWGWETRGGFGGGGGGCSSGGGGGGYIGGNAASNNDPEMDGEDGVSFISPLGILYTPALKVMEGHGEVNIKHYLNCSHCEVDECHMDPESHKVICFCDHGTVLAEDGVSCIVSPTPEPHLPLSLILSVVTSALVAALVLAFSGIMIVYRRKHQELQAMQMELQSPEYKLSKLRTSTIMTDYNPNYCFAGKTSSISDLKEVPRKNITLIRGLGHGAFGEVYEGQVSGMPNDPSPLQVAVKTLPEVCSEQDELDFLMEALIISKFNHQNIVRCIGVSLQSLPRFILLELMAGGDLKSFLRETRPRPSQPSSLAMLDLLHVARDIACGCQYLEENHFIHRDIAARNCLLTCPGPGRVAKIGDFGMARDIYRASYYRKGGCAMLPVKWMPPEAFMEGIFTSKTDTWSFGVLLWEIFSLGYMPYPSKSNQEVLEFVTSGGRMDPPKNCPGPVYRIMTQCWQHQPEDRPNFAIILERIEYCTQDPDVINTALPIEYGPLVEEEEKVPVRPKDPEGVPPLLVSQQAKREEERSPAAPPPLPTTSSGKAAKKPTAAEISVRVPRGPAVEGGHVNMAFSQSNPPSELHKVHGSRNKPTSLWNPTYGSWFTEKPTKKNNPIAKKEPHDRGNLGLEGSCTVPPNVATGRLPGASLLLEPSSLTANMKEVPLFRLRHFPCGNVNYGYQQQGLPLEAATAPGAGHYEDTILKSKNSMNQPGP
# Protocol details: Kinase inhibitory activity (33P-ATP, filtration-binding method, Reaction Biology Corp.)
# Type: biochemical
Recorded endpoint: IC50 (nM)
// note: answer is a bare numeric in nM

Lab note: O=C1NC2(CC2)COc2ncc(F)cc2C2COCCN2c2ccn3ncc1c3n2 (single isomer, unassigned) [WX001B] gave IC50 of 182

* * *

# Protocol details: Pharmacokinetic test of compounds in rats (plasma, LC/MS/MS)
# Format: in vivo, male SD rats
# Test conditions: PO, 10 mg/kg
Recorded endpoint: Time to peak Tmax (min)

Field Time to peak Tmax (entry C[C@@H]1COc2ncc(F)cc2[C@H]2COC[C@@H](C)N2c2ccn3ncc(c3n2)C(=O)N1 ) reads 30

P. C[C@@H]1COC[C@@H]2c3cc(F)cnc3O[C@@H](C)CNC(=O)c3cnn4ccc(nc34)N12
Q. C[C@H]1CNC(=O)c2cnn3ccc(nc23)N2CCOC[C@@H]2c2cc(F)cnc2O1 [WX004B]
R. O=C1NC2(CC2)COc2ncc(F)cc2[C@H]2CCOCCN2c2ccn3ncc1c3n2 [WX009A]
Put the items in sequence by Time to peak Tmax, from largest down. Answer format: the labels, ordered as requested.
R, Q, P
